Assay target: sEH (Homo sapiens)
Construct: purchased Cayman Chemical 10011669
Sequence (P34913 1-555): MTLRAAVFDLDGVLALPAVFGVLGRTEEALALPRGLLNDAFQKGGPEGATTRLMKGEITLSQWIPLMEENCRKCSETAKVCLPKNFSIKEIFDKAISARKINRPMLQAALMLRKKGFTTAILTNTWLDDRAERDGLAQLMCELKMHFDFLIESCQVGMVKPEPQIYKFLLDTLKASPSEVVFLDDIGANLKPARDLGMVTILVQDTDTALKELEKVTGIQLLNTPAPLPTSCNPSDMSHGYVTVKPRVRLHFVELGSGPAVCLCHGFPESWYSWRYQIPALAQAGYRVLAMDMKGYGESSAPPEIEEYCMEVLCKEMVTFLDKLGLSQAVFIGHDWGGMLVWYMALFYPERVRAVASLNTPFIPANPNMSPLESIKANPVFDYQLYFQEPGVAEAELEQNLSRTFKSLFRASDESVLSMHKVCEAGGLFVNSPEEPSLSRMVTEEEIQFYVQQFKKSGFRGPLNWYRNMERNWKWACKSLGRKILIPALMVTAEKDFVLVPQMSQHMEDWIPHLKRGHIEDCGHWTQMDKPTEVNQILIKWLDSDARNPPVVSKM
Assay notes: sEH inhibition assay (Epoxy Fluor 7 substrate, fluorescence)
Format: biochemical
Study conditions: enzyme 3 nM, 15 min pre-incubation at room temperature, read at 30° C. for 20 minutes, read-out: IC50 against sEH
pIC50: −log10 of the molar value.
Readout label: pIC50

Compound: CN(CCn1cccn1)C(=O)c1ccc(-c2cccc(C(=O)NC3CCCCC3)c2)nc1 [Compound 1]
Test result: 8.70
